Test readout: IC50 (µM)
Record the value in µM, omitting the unit from your answer.

query: Form field: IC50 recorded for CCNC(=O)c1cc2c(-c3cc(OCCCCCn4cc(-c5ncnc6[nH]ccc56)cn4)c(Cl)cc3Cl)nc(N)nc2s1 with Tyrosine-protein kinase JAK2 (Homo sapiens, UniProt O60674) (enter value)
Sequence (O60674 whole entry): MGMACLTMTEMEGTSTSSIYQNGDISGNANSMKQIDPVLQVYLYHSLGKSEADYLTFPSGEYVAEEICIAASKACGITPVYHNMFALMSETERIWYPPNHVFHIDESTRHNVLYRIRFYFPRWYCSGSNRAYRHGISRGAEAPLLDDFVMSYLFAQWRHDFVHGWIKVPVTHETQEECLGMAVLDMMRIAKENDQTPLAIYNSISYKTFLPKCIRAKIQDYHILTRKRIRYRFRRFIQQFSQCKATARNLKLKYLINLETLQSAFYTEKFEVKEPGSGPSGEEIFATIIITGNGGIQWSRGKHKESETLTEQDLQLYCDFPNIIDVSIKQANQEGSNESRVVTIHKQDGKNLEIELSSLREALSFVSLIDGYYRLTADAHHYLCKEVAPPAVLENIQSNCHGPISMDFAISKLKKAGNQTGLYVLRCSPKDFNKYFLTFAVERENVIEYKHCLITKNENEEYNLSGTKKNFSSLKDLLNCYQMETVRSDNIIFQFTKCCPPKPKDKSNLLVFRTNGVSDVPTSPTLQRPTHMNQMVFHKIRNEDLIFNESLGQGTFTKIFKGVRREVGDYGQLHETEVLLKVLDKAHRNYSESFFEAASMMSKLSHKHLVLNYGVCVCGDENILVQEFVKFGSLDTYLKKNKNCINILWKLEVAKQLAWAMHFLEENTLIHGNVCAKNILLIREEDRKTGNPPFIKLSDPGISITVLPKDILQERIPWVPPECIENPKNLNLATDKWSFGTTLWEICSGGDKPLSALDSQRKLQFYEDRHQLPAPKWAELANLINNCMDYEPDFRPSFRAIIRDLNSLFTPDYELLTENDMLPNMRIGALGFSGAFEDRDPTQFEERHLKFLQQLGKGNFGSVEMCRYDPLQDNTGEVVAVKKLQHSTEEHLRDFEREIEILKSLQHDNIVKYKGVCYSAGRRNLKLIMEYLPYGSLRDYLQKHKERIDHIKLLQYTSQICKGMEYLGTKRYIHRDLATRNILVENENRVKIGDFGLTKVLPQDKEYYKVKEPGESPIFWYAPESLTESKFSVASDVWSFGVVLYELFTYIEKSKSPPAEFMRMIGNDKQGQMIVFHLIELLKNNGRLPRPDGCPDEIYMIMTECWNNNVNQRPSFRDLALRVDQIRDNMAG
result: 3.45

* * *

Test readout: IC50 (nM)
Response body: numeric value in nM, unit text excluded.

query: Observed IC50 on Protein deacetylase HDAC6 (Homo sapiens, UniProt Q9UBN7) for CCNC(=O)c1cc2c(-c3cccc(OCCCCCCOc4ccc(Nc5nc(-c6cnn(CCCCCCC(=O)NO)c6)c6cc[nH]c6n5)cc4)c3)nc(N)nc2s1 , please.
Sequence (Q9UBN7 whole entry): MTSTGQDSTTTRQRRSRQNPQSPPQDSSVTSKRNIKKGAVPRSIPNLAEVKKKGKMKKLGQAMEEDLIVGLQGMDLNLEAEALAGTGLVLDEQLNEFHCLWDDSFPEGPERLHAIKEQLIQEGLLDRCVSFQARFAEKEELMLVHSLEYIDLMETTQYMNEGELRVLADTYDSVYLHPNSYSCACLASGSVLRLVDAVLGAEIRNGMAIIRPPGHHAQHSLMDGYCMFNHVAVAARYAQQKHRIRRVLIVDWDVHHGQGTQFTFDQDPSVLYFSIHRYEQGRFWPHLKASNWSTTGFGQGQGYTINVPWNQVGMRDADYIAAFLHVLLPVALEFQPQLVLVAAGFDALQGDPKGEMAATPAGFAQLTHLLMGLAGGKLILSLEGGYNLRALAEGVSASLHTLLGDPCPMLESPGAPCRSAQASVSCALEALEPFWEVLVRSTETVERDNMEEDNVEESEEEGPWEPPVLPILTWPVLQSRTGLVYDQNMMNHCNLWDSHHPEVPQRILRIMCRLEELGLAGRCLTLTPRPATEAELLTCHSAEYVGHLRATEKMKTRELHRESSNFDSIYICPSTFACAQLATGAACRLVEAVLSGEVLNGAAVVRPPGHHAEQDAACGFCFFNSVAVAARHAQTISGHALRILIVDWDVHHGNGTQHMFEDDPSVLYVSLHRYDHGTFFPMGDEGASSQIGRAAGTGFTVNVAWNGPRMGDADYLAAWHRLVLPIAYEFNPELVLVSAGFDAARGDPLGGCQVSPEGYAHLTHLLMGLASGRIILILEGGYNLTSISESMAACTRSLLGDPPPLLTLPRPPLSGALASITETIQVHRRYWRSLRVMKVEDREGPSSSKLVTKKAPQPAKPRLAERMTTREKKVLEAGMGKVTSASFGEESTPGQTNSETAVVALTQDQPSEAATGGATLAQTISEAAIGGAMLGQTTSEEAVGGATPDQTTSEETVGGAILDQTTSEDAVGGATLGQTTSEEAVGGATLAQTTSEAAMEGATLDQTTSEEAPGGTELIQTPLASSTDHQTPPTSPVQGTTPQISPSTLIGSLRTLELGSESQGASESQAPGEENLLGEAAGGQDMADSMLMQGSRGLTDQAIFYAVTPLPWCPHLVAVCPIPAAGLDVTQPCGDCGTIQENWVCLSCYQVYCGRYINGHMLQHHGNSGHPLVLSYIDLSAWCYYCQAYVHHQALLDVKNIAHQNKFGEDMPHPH
result: 8

* * *

Target desc: Heat shock protein HSP90 (Homo sapiens, UniProt P07900+P08238)
Measurement notes: Inhibition of geldanamycin-based probe binding to HSP90 (unknown origin) by fluorescence polarization assay
Assay type: protein assay
Test readout: IC50 (µM)
Response body: numeric value in µM, unit text excluded.

query: Name the reported IC50 value associated with the compound CCNC(=O)c1cc2c(-c3cc(OCCCCCn4cc(-c5ncnc6[nH]ccc56)cn4)c(Cl)cc3Cl)nc(N)nc2s1
result: 0.4

query: # lookup: IC50 of CCNC(=O)c1cc2c(-c3cc(OCCCCCCn4cc(-c5ncnc6[nH]ccc56)cn4)c(Cl)cc3Cl)nc(N)nc2s1
result: 0.11

* * *

Target desc: UniProt P07900
pIC50: −log10 of the molar value.
Test readout: pIC50

query: Quick one: pIC50 for CCNC(=O)c1cc2c(-c3cccc(OCCCCCCOc4ccc(Nc5nc(-c6cnn(CCCCCCC(=O)NO)c6)c6cc[nH]c6n5)cc4)c3)nc(N)nc2s1 ?
result: < 4.00

* * *

Target desc: Heat shock protein HSP90 (Homo sapiens, UniProt P07900+P08238)
Measurement notes: Inhibition of geldanamycin-based probe binding to HSP90 (unknown origin) by fluorescence polarization assay
Assay type: protein assay
Assignment: determine reported IC50 for the given compounds.

query: Sample CCNC(=O)c1cc2c(-c3cccc(OCCCCCCn4cc(-c5ncnc6[nH]ccc56)cn4)c3)nc(N)nc2s1 — what was its IC50?
result: > 10 µM

query: Could you tell me which IC50 is on file for CCNC(=O)c1cc2c(-c3cccc(OCCCCn4cc(-c5ncnc6[nH]ccc56)cn4)c3)nc(N)nc2s1 ?
result: > 10 µM

query: Which IC50 reading was recorded for the compound CCNC(=O)c1cc2c(-c3cccc(OCCCCCn4cc(-c5ncnc6[nH]ccc56)cn4)c3)nc(N)nc2s1 ?
result: > 10 µM
